So I've got a bunch of binders here, and I need their CMVIC pSmad-3, IC50 values.
target: TGFβ1 (R&D Systems); experiment: cell-based or functional assay
Sequence (P01137 279-390): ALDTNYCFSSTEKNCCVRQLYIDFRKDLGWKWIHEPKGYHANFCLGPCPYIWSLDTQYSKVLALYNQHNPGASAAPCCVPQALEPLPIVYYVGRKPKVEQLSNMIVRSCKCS
Dear colleague, please return just the value in nM, with no unit written.

Q. Which CMVIC pSmad-3, IC50 value belongs to Can04H09 VH3/VL3 (antibody, V domains shown) VH: EVQLVQSAAEVKKPGASVKVSCKTSGYTFTSSWMNWVQQAPGAGLDWMGQIYPGDGDTNYNGKFKGRVTLTADTSTSTAYMELSSLRAEDTAVYYCARHYDGSTDYWGQGTLVTVSS VL: EIVMTQSPASLSLSQEEKVTITCRASENIYSNLAWYQQKPGQAPKLLIYAATNLADGVPSRFSGSGSGTDFSFTISSLEPEDVAVYYCQHFWGTPYTFGQGTK ?
A. 1.18

Q. Lookup Can04H09 VH3/VL4 (antibody, V domains shown) VH: EVQLVQSAAEVKKPGASVKVSCKTSGYTFTSSWMNWVQQAPGAGLDWMGQIYPGDGDTNYNGKFKGRVTLTADTSTSTAYMELSSLRAEDTAVYYCARHYDGSTDYWGQGTLVTVSS VL: EIVMTQSPASLSLSQGEKVTITCRASENIYSNLAWYQQRPGQAPKLLIYAATNLADGVPSRFSGSGSGTDFSLTISSLEPEDVAVYYCQHFWGTPYTFGQGTK
A. 0.74

Q. Lookup chi04H09 (mouse-dog) (antibody, V domains shown, also called mouse:canine 04H09 chimera) VH: QVQLQQSGAELVKPGASVKISCKASGYAFSSSWMNWVKQRPGKGLEWIGQIYPGDGDTNYNGKFKGKATLTADKSSSTAYMQLSSLTSEDSAVYFCARHYDGSTDYWGQGTTLTVSS VL: DIQMTQSPASLSVSVGETVTITCRASENIYSNLAWYQQKQGKSPQLLVYAATNLADGVPSRFSGSGSGTQYSLKINSLQSEDFGSYYCQHFWGTPYTFGGGTKLEIKR
A. 3.5

Q. Lookup Can04H09 VH1/VL3 (antibody, V domains shown) VH: EVQLVQSGAEVKKPGASVKVSCKTSGYTFISSWMNWVRQAPGAGLDWMGQIYPGDGDTNYNGKFKGRVTLTADTSTSTAYMELSSLRAGDIAVYYCARHYDGSTDYWGQGTLVTVSS VL: EIVMTQSPASLSLSQEEKVTITCRASENIYSNLAWYQQKPGQAPKLLIYAATNLADGVPSRFSGSGSGTDFSFTISSLEPEDVAVYYCQHFWGTPYTFGQGTK
A. 0.66

Q. Lookup Can04H09 VH2/VL4 (antibody, V domains shown) VH: EVQLVQSAAEVKKPGASVKVSCKTSGYSFTSSWMNWVQQAPGKGLDWMGQIYPGDGDTNYNGKFKGRVTLTADKSTSTAYMELSSLRSEDAAVYYCARHYDGSTDYWGQGTLVTVSS VL: EIVMTQSPASLSLSQGEKVTITCRASENIYSNLAWYQQRPGQAPKLLIYAATNLADGVPSRFSGSGSGTDFSLTISSLEPEDVAVYYCQHFWGTPYTFGQGTK
A. 0.84

Q. Lookup 04H09 (mouse) (antibody, V domains shown, mouse IgG, kappa, purified from hybridoma; also called mouse 04H09 monoclonal antibody; 04H09 (murine)) VH: QVQLQQSGAELVKPGASVKISCKASGYAFSSSWMNWVKQRPGKGLEWIGQIYPGDGDTNYNGKFKGKATLTADKSSSTAYMQLSSLTSEDSAVYFCARHYDGSTDYWGQGTTLTVSS VL: DIQMTQSPASLSVSVGETVTITCRASENIYSNLAWYQQKQGKSPQLLVYAATNLADGVPSRFSGSGSGTQYSLKINSLQSEDFGSYYCQHFWGTPYTFGGGTKLEIK
A. 4.66

Q. Lookup Can04H09 VH1/VL4 (antibody, V domains shown) VH: EVQLVQSGAEVKKPGASVKVSCKTSGYTFISSWMNWVRQAPGAGLDWMGQIYPGDGDTNYNGKFKGRVTLTADTSTSTAYMELSSLRAGDIAVYYCARHYDGSTDYWGQGTLVTVSS VL: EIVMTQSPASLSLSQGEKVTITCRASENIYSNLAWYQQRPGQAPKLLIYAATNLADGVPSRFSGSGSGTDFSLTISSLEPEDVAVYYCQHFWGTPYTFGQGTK
A. 0.88
